Assay: Pharmacokinetics following oral administration in the rat
Type: in vivo
Conditions: male, rat, plasma, po, 3 mg/kg, rat, 3 mg/kg oral, 0.25 h, mean; read-out: Concentration in Blood, Mean
Classification field: enter yes for concentration at 0.25 h values not below 1000 ng/mL, no for values below it.

Query: State whether the measured concentration at 0.25 h reaches 1000 ng/mL, counting equality as reaching it, for "Cc1c(Cc2ccccc2S(=O)(=O)c2ccc(F)cc2)c2cc(F)ccc2n1CC(=O)O"
Reply: yes

Query: # check: concentration at 0.25 h of "Cc1c(Cc2ccccc2S(=O)(=O)c2ccc(Cl)cc2)c2cc(F)ccc2n1CC(=O)O" is greater than or equal to 1000 ng/mL
Reply: yes

Query: I'd appreciate it if you could say whether Cc1c(Cc2ccc3ccccc3n2)c2cc(F)ccc2n1CC(=O)O [Compound A, reference compound] has concentration at 0.25 h at least equal to 1000 ng/mL.
Reply: no

Query: Identify whether the reported concentration at 0.25 h of the following compound is 1000 ng/mL or greater: Cc1c(Cc2ccc(S(C)(=O)=O)cc2)c2cc(F)ccc2n1CC(=O)O [Compound B, reference compound]
Reply: no

Query: Hi team, for "Cc1c(Cc2ccccc2S(=O)(=O)c2ccccc2)c2cc(F)ccc2n1CC(=O)O" , is the recorded concentration at 0.25 h at or above 1000 ng/mL?
Reply: yes

Values compiled from patent US7999119B2.
